Measured z-score accompanies every entry in the list below.
Test: PSAC antagonists in infected red cells, primary screen, cell-based, P. falciparum Indochina, OD700, 18 h (AID 1157)
Settings: P. falciparum Indochina infected erythrocytes, osmotic lysis OD700, 18 h; higher = more signal, called active from +8 up or from −8 down
Observable: z-score

>>> measured_value("COc1ccc([Si](C)(C)[C@@H]2[C@@H](CC(=O)N(CCO)Cc3ccccc3)O[C@]3(C(=O)N(Cc4cccc(N5CCC5=O)c4)c4ccccc43)[C@H]2C)cc1")
1.19
>>> measured_value("C[C@H]1COC(=O)[C@H](Cc2ccccc2)NC(=O)[C@@H](C)COC(=O)[C@H](Cc2ccccc2)NC1=O")
-1.93
>>> measured_value("N#Cc1ccc(NN2C(C(O)c3ccc(I)cc3)C=CC3C(=O)N(c4ccccc4)C(=O)C32)cc1 (centres undefined)")
2.57
>>> measured_value("Cc1ccccc1C(O)C1C=CC2C(=O)N(c3ccccc3)C(=O)C2N1Nc1ccc(C#N)cc1 (centres undefined)")
1.81

----------
Measured composite z-score accompanies every entry in the list below.
Molecular target: Torsin-1A (Homo sapiens)
Assay: small-molecule binders of mutant TOR1A in lysate, primary screen, cell lysate, small-molecule microarray, COS7 lysate, 635/667 nm fluorescence (AID 1150);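 also: score pools 667 nm emission and signal to noise measuring lysate protein binding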
Conditions: COS7 hTOR1A mutant lysate, 635 nm fluorescence, higher = more signal
Observable: composite z-score

>>> measured_value("COCCOC(=O)N1C(=O)[C@@]2(c3cc(C#CCC(C(=O)OC)C(=O)OC)ccc31)[C@H](c1ccccc1OCCO)N1[C@H](c3ccccc3)[C@H](c3ccccc3)OC(=O)[C@H]1[C@@H]2C(=O)N1CCCCCCC1")
0.96
>>> measured_value("C=CC(=O)O[C@@H](Cc1ccccc1)[C@H]1C2C=CCCC=C2CN1Cc1cccc(Cl)c1 (stereo not given in full)")
0.393
>>> measured_value("COC(=O)C1=CC(c2ccc(CO)cc2)=CC(c2cccs2)N(Cc2cccc(OC(F)(F)F)c2)C=C1C(=O)OC (stereo not given)")
0.76
>>> measured_value("COC(=O)C1=CC(c2ccc(CO)cc2)=CC(C2CC2)N(Cc2sc3ccccc3c2Cl)C=C1C(=O)OC (stereo not given)")
1.45
>>> measured_value("Cc1ccc(S(=O)(=O)N[C@H]2COC(=O)CC=C[C@H](C)COC(=O)N[C@@H](C)C(=O)CC=C[C@@H]2C)cc1")
0.555
>>> measured_value("CCCN1C(=O)[C@@]2(CCS(=O)(=O)c3ccccc3)N=C(c3ccc(OCCCO)cc3)O[C@H]2c2ccccc21")
0.655
>>> measured_value("CC(C)C[C@@H]1NC(=O)[C@H]2C[C@@H](C(=O)NCCCCCC[N+](C)(C)C)[C@@H](c3ccc(O)cc3)N2C1=O")
0.951
>>> measured_value("COC(=O)Cn1c(C(=O)N2CCCC2)cc2c1C[C@H]1CN(C(=O)c3ccccc3)[C@@](Cc3ccccc3)(C(=O)OC)[C@@H]21")
-0.0683
>>> measured_value("Cc1ccc(S[C@]2(C(=O)NCCN3CCOCC3)CC(=O)N(C3Cc4ccccc4C3)[C@@H]2c2ccc(CO)cc2I)cc1")
-0.131
>>> measured_value("O=C(CS)NCCCCCNC(=O)[C@H]1C[C@H]2C(=O)N3CCC[C@H]3C(=O)N2[C@H]1c1ccc(O)cc1")
0.0883
>>> measured_value("CCOC(=O)C[C@H]1[C@H](OC(=O)c2ccccc2-c2ccccc2)[C@@H](NC(=O)C2CCCCC2)c2cc(OCCCO)ccc2N1C(=O)c1ccccc1")
0.197
>>> measured_value("CC(C)[Si]1(C(C)C)OCc2cc(C3CC3)nc(-c3ccccc3)c21")
0.127
>>> measured_value("CO[C@H]1COC(=O)[C@@H](Cc2ccccc2)NC(=O)[C@@H](C)COC(=O)CC=C[C@@H]1C")
-0.0112
>>> measured_value("CO[C@H]1COC(=O)[C@H](C)NC(=O)CC=C[C@@H](C)[C@H](NS(=O)(=O)c2ccc(C)cc2)COC(=O)[C@@H](OCc2ccccc2)C=C[C@@H]1C")
0.316
>>> measured_value("O=C(CS)NCCCCCCNC(=O)[C@@H]1C[C@@H]2C(=O)N[C@@H](Cc3ccccc3)C(=O)N2[C@@H]1c1ccc(O)cc1")
1.14
